- Assay: Solubilisation kinetics under non sink conditions
- Type: physicochemical
- Measurement Context: thermodynamic from solid, in 2 minutes, read-out: concentration of DHEA reached (solubilisation kinetics, oversaturation)

Molecule: C[C@]12CC[C@H](O)CC1=CC[C@@H]1[C@@H]2CC[C@]2(C)C(=O)CC[C@@H]12 [DHEA, dehydroepiandrosterone]
solubility kinetic at 2 min: ~50 µg/mL
